Tested on: liver HepG-2 cancer cell line
protocol description: In vitro cytotoxic activity (MTT assay), HepG-2
assay context: 50 µM
assay endpoint: percentage cytotoxicity on HepG-2 (%)
Please give a number only; it is taken to be in %.

INPUT: Given the entry O=S(=O)(NC1CCCCC1)c1ccc(-n2cc(CO[C@@H]3O[C@H](CO)[C@H](O)[C@H](O)[C@H]3O)nn2)cc1 , report its measured percentage cytotoxicity on HepG-2.
OUTPUT: 62.70

INPUT: Field entry: CC(=O)OC[C@H]1O[C@@H](OCc2cn(-c3ccc(S(=O)(=O)NC4CCCCC4)cc3)nn2)[C@H](OC(C)=O)[C@@H](OC(C)=O)[C@H]1OC(C)=O
OUTPUT: 85.58

* * *

pIC50 for assorted molecules
Tested on: liver HepG-2 cancer cell line
protocol description: In vitro cytotoxic activity (MTT assay), HepG-2
assay context: Homo sapiens, HepG2, read-out: IC50 (mean ± SD) HepG-2
Answer as the number alone; pIC50 is minus log10 of concentration in mol/L.

INPUT: Given the entry O=S(=O)(NC1CCCCC1)c1ccc(-n2cc(CO[C@@H]3O[C@H](CO)[C@H](O)[C@H](O)[C@H]3O)nn2)cc1 , report its measured pIC50.
OUTPUT: 4.77

INPUT: Field entry: CCCCNS(=O)(=O)c1ccc(-n2cc(CO[C@@H]3OC[C@@H](O)[C@H](O)[C@H]3O)nn2)cc1
OUTPUT: 4.44

INPUT: Field entry: CCCCNS(=O)(=O)c1ccc(N=[N+]=[N-])cc1 [Compound 3, 4-Azido-N-butylbenzenesulfonamide]
OUTPUT: 4.24

* * *

System: breast MCF-7 cancer cell line
protocol description: In vitro cytotoxic activity (MTT assay), MCF-7
Type: cell-based, human
assay context: 50 µM
condition met means recorded percentage cytotoxicity on MCF-7 is 80% or above; condition not met means it is below 80%.

INPUT: Hi, just wondering whether O=S(=O)(NC1CCCCC1)c1ccc(-n2cc(CO[C@@H]3OC[C@@H](O)[C@H](O)[C@H]3O)nn2)cc1 shows percentage cytotoxicity on MCF-7 of 80% or higher.
OUTPUT: condition not met

INPUT: Field entry: CC(=O)OC[C@H]1O[C@@H](OCc2cn(-c3ccc(S(=O)(=O)NC4CCCCC4)cc3)nn2)[C@H](OC(C)=O)[C@@H](OC(C)=O)[C@H]1OC(C)=O
OUTPUT: condition met

INPUT: Field entry: CC(=O)O[C@@H]1[C@@H](OC(C)=O)[C@H](OCc2cn(-c3ccc(S(=O)(=O)NC4CCCCC4)cc3)nn2)OC[C@H]1OC(C)=O
OUTPUT: condition met

INPUT: Field entry: CCCCNS(=O)(=O)c1ccc(-n2cc(CO[C@@H]3OC[C@@H](OC(C)=O)[C@H](OC(C)=O)[C@H]3OC(C)=O)nn2)cc1
OUTPUT: condition not met

* * *

System: colorectal HCT-116 cancer cell line
protocol description: In vitro cytotoxic activity (MTT assay), HCT-116
Assay type: cell-based, human
assay context: 50 µM
assay endpoint: percentage cytotoxicity on HCT-116 (%)
Please give a number only; it is taken to be in %.

Past entries and their recorded results:
[[record]]
compound = "CC(=O)OC[C@H]1O[C@@H](OCc2cn(-c3ccc(S(=O)(=O)NC4CCCCC4)cc3)nn2)[C@H](OC(C)=O)[C@@H](OC(C)=O)[C@H]1OC(C)=O"
assay_endpoint = "percentage cytotoxicity on HCT-116"
readout_unit = "%"
result_number = 50.70

[[record]]
compound = "O=S(=O)(NC1CCCCC1)c1ccc(-n2cc(CO[C@@H]3OC[C@@H](O)[C@H](O)[C@H]3O)nn2)cc1"
assay_endpoint = "percentage cytotoxicity on HCT-116"
readout_unit = "%"
result_number = 47.00


INPUT: Given the entry CC(=O)O[C@@H]1[C@@H](OC(C)=O)[C@H](OCc2cn(-c3ccc(S(=O)(=O)NC4CCCCC4)cc3)nn2)OC[C@H]1OC(C)=O , report its measured percentage cytotoxicity on HCT-116.
OUTPUT: 67.00

INPUT: Field entry: [N-]=[N+]=Nc1ccc(S(=O)(=O)NC2CCCCC2)cc1 [Compound 4, 4-Azido-N-cyclohexylbenzenesulfonamide]
OUTPUT: 86.90
